Could you please report measured kon for the items listed next?
# System: T1, Extracellular domain (ECD) of the canine IL-4 receptor alpha-AviTag-His Tag (canine)
# T1 construct: expressed in CHO cells; also called canine IL-4RA; canine IL4Ra
# T1 chain: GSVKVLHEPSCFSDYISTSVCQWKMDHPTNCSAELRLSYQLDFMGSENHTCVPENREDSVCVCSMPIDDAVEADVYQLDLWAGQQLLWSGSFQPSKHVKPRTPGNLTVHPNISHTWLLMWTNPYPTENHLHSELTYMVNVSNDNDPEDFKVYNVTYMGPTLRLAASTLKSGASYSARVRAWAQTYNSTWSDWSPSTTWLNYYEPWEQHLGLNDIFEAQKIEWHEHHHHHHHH
# Experiment: SPR, IgG captured via anti-dog Fc
Answer with a number only, understood to be in M⁻¹ s⁻¹.

Data request: Fill in kon for record 21188-H + GFmix2_KTHG-L (antibody, V domains shown) VH: EVQLVESGGDLVKPGGSLRLSCVASGFTFRDYAMTWVRQAPGKGLQWLSLISGSGGKTYYADAVKGRFTISRDNAKNTLYLQMNSLRAEDTAVYYCAVDRLTKTIRPQYYGLWHWGQGTLVTVSS VL: DIVMTQTPLSLSVSPGETASISCRSSKSLTYSIGYNYLDWYMQKPGQSPQGLIYLGSKRASGVSDRFSGSGSGADFTLKISRVEADDAGVYYCMQGLHSPLGFGQGTKLEIKR
Data returned: 354000

Data request: Fill in kon for record 21188-H + GFmix3_KTHS-L (antibody, V domains shown) VH: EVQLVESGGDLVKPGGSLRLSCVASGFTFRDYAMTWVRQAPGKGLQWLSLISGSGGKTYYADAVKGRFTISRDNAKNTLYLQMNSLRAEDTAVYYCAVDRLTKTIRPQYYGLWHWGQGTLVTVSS VL: DIVMTQTPLSLSVSPGETASISCRSSKSLTYSIGYNYLDWYMQKPGQSPQGLIYLGSKRASGVSDRFSGSGSGADFTLKISRVEADDAGVYYCMQGLHSPLSFGQGTKLEIKR
Data returned: 333000

Data request: Fill in kon for record 21188-H + FJP10F04-L (antibody, V domains shown) VH: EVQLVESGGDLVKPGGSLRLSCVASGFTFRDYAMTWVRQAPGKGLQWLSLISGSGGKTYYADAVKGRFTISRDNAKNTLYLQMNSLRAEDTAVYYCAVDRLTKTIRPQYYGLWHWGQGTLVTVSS VL: DIVMTQTPLSLSVSPGETASISCRSSKSLLYSIGYNYLDWYMQKPGQSPQGLIYLGSKRASGVSDRFSGSGSGADFTLKISRVEADDAGVYYCMQGLHSPLTFGQGTKLEIKR
Data returned: 286000

Ref: patent US20250188176A1
